target: hNET (Homo sapiens, UniProt P23975); test: biochemical; assay type: binding; details: Kd of CFT
Sequence (P23975 whole entry): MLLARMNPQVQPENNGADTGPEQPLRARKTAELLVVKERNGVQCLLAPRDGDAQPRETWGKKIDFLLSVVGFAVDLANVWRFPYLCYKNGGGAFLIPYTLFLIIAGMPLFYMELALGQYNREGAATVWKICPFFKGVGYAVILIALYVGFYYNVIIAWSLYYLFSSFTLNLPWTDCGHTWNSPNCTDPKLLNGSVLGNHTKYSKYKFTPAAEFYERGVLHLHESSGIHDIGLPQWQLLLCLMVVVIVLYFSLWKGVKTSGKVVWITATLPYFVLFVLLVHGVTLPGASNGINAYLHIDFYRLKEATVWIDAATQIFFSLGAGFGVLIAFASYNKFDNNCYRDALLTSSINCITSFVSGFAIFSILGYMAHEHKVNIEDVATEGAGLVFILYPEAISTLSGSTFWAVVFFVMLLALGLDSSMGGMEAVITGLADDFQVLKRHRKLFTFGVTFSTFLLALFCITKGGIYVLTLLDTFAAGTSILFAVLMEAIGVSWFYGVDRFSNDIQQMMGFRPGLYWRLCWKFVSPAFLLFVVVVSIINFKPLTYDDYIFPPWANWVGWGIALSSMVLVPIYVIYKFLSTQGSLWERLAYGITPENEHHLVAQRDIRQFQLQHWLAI
Readout Type: Kd (µM)
The response must be a number in µM with no trailing unit.

The compound listed as COC(=O)[C@H]1[C@@H](c2ccc(F)cc2)C[C@@H]2CC[C@H]1N2C has a reported Kd of 0.018
